Tested on: Escherichia coli
Experiment: Antibacterial activity against Escherichia coli at 10 mg/ml after 24 hrs by agar-diffusion technique
Format: functional
Conditions: read-out: IZ
reported_property: zone of inhibition at 10000 µg/mL (mm)
Only the number, expressed in mm, is required.

What value of zone of inhibition at 10000 µg/mL has been recorded for this entry: "N#Cc1c(-c2ccccc2)cc(-c2cccs2)c([N+](=O)[O-])c1N"
12

What value of zone of inhibition at 10000 µg/mL has been recorded for this entry: "CCOC(=O)c1c(-c2ccc(OC)cc2)cc(-c2ccc[nH]2)c([N+](=O)[O-])c1N"
10

What value of zone of inhibition at 10000 µg/mL has been recorded for this entry: "CCOC(=O)c1c(-c2ccc(OC)cc2)cc(-c2ccco2)c([N+](=O)[O-])c1N"
10

What value of zone of inhibition at 10000 µg/mL has been recorded for this entry: "N#Cc1c(-c2ccccc2)cc(-c2ccco2)c([N+](=O)[O-])c1N"
17

What value of zone of inhibition at 10000 µg/mL has been recorded for this entry: "N#Cc1c(-c2ccccc2)cc(-c2ccc[nH]2)c([N+](=O)[O-])c1N"
14

What value of zone of inhibition at 10000 µg/mL has been recorded for this entry: "CCOC(=O)c1c(-c2ccc(OC)cc2)cc(-c2cccs2)c([N+](=O)[O-])c1N"
14

====

System: Aspergillus niger
Test: Antifungal activity against Aspergillus niger at 10 mg/ml after 7 days by disc diffusion technique
Format: functional
Conditions: 168 h, read-out: IZ
reported_property: zone of inhibition at 10000 µg/mL (mm)
Only the number, expressed in mm, is required.

What value of zone of inhibition at 10000 µg/mL has been recorded for this entry: "CCOC(=O)c1c(-c2ccc(OC)cc2)cc(-c2ccco2)c([N+](=O)[O-])c1N"
10

What value of zone of inhibition at 10000 µg/mL has been recorded for this entry: "CCOC(=O)c1c(-c2ccc(OC)cc2)cc(-c2ccc[nH]2)c([N+](=O)[O-])c1N"
10

What value of zone of inhibition at 10000 µg/mL has been recorded for this entry: "Clc1ccccc1C(c1ccccc1)(c1ccccc1)n1ccnc1"
23

What value of zone of inhibition at 10000 µg/mL has been recorded for this entry: "CCOC(=O)c1c(-c2ccc(OC)cc2)cc(-c2cccs2)c([N+](=O)[O-])c1N"
18

What value of zone of inhibition at 10000 µg/mL has been recorded for this entry: "N#Cc1c(-c2ccccc2)cc(-c2ccc[nH]2)c([N+](=O)[O-])c1N"
20

What value of zone of inhibition at 10000 µg/mL has been recorded for this entry: "N#Cc1c(-c2ccccc2)cc(-c2cccs2)c([N+](=O)[O-])c1N"
15

What value of zone of inhibition at 10000 µg/mL has been recorded for this entry: "N#Cc1c(-c2ccccc2)cc(-c2ccco2)c([N+](=O)[O-])c1N"
8

Values from ChEMBL document CHEMBL2424519
